B1: NP_002788.1 (parent)
chain: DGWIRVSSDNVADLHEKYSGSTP

Variants of: B1
Assay details: protein stability index of a GFP-peptide fusion (GPS, HEK-293T) (PSI 1-6); higher = more stable;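 further: lentivirally expressed fusion library, cells FACS-sorted into six equal-sized GFP/DsRed ratio bins, PSI computed from sequencing read fractions per bin weighted by bin number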
Experimental parameters: c terminus: native
Measured quantity: protein stability index
One number for each entry.

Reference set, count: 6
> print(dat)
   variant.key  quantitative.result
1          S7N                 4.02
2         Y18A                 3.39
3          D9T                 2.43
4         V11K                 1.78
5         T22I                 2.31
6         G20M                 3.63

# batch: return protein stability index for each of the 4 variants below
1. E16Y
2. P23M
3. S21Q
4. N10P

**A:**
[2.87, 3.41, 3.01, 2.58]

# batch: return protein stability index for each of the 7 variants below
1. S8C
2. S19C
3. N10H
4. R5A
5. V6K
6. H15G
7. W3V

**A:**
1. 2.13
2. 2.9
3. 2.22
4. 2.31
5. 2.16
6. 2.71
7. 5.65

# batch: return protein stability index for each of the 2 variants below
1. S19I
2. V11C

**A:**
2.49
2.41

# batch: return protein stability index for each of the 3 variants below
1. A12P
2. S19D
3. T22P

**A:**
2.45
3.5
4.85
